# method description: In Vitro Microsome Stability Assay (mouse)
# Format: in vitro ADME
# test settings: mouse, 30 min, NADPH
Where a name gives a salt, the structure may show the parent alone.
Lab note - cut at 30% for Liver Microsome Stability-% Left after 30 min w/ NADPH (%) Mouse: rule met if strictly below, rule not met if not.

Example entries and their recorded answers appear below.
C=C1CN(S(=O)(=O)c2ccc(C)cc2)CCCN(Cc2ccccc2)CCCN(S(=O)(=O)c2ccc(C)cc2)C1 = rule met
CC1CCCN(S(=O)(=O)N2CCCN(CC3CCCCC3)CCCN(S(=O)(=O)c3ccc(N(C)C)cc3)CC3(CC3)C2)C1 (stereo not drawn) = rule met
C=C1CN(S(=O)(=O)c2ccc(N(C)C)cc2)CCCN(CC2CCCCC2)CCCN(S(=O)(=O)N2CCc3nc(Cl)ccc3C2)C1 = rule met
C=C1CN(S(=O)(=O)c2ccc(N(C)C)cc2)CCCN(CC2CCCCC2)CCCN(S(=O)(=O)N2CCN(c3ccccc3)C(=O)C2)C1 = rule met
CC1CN(S(=O)(=O)c2ccc(N(C)C)cc2)CCCN(CC2CCCCC2)CCCN(S(=O)(=O)N2CCC(c3ccccc3)CC2)C1 (stereo not drawn) [A44, hydrochloride] = rule not met
C=C1CN(S(=O)(=O)c2ccc(N(C)C)cc2)CCCN(CC2CCCCC2)CCCN(S(=O)(=O)N2CC=C(c3cccc(Cl)c3)CC2)C1 = rule not met
Cc1ccccc1N1CCN(S(=O)(=O)N2CCCN(CC3CCCCC3)CCCN(S(=O)(=O)c3ccc(N(C)C)cc3)C[C@H](C)C2)CC1 = rule not met
C=C1CN(S(=O)(=O)c2ccc(N(C)C)cc2)CCCN(CC2CCCCC2)CCCN(S(=O)(=O)N2CCN(c3ccccc3Cl)CC2)C1 = rule met

Please examine the following record next.
Asked: hey, is Liver Microsome Stability-% Left after 30 min w/ NADPH (%) Mouse for O=S(=O)(C1CCCCC1)N1CCCN(CC2CCCCC2)CCCN(S(=O)(=O)N2CCCCC2)CC2(CC2)C1 lower than 30% or not?
Given back: rule met
